Items are presented alongside their recorded normalized growth.
protocol: chemical genetic growth profiling, strain panel (AID 1159580);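 note: tested at 20 µM; growth read once vehicle control cultures reached saturation at 30 °C; 1 = growth at the plate median or of vehicle wells; lower values mean less growth of the strain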
experimental-context: S. cerevisiae deletion strains, growth OD, locus YML016C, strain PPZ1, active compounds read low
The campaign covered roughly 5,500 compounds. About 2,000 (36%) were called active. Not shown: some 18% with an inconclusive outcome. The list shows a part of the results.
Answer with a bare number; do not write a unit.

# annotated cases, reported normalized growth shown
> print(dat)
                                   smi  number
1  Cc1cc(C)nc(NS(=O)(=O)c2ccc(N)cc2)n1   0.995
2                   COc1cc(OC)cc(OC)c1       1
3             COc1cc(O)c(C(=O)O)c(O)c1   0.999

Consider COc1ccc2c(=O)c(CC(=O)O)coc2c1 . Its measured normalized growth is 1
